- Tested on: KURAMOCHI
- test-description: drug sensitivity score (DSS2) on cancer cell count; higher = more sensitive; extreme values may be limits of the assay
- recorded-conditions: co-cultured fibroblast: BJHTERT; 72 h
Param threshold (2 DSS) applies to drug sensitivity score; output true when value >= threshold, false when value < threshold.

compound	system	category
CC(C)NC[C@@H](C(=O)N1CCN(c2ncnc3c2[C@H](C)C[C@H]3O)CC1)c1ccc(Cl)cc1	KURAMOCHI	false
CC[C@@H](C(=O)[C@@H](C)[C@@H](O)[C@H](C)[C@@H]1O[C@@H]([C@@H](CC)C(=O)O)CC[C@@H]1C)[C@H]1O[C@]2(C=C[C@@H](O)[C@]3(CC[C@@](C)([C@H]4CC[C@](O)(CC)[C@H](C)O4)O3)O2)[C@H](C)C[C@@H]1C	KURAMOCHI	true
CNC(=O)c1ccc2cc([C@@]3(O)CCn4cncc43)ccc2c1	KURAMOCHI	false
CC[C@@H]1C(=O)OC[C@@H]1Cc1cncn1C	KURAMOCHI	false
O=C(/C=C/c1cccnc1)NCCCCC1CCN(C(=O)c2ccccc2)CC1	KURAMOCHI	true
Cc1nc(=O)c2cc(CN(C)c3ccc(C(=O)N[C@@H](CCC(=O)O)C(=O)O)s3)ccc2[nH]1	KURAMOCHI	true
CCn1c(C(=O)N(C2CC2)C2CC2)cc2c3c(ncn3C)c(Nc3cc(C)n(C)n3)nc21	KURAMOCHI	true
CS(=O)(=O)CCNCc1ccc(-c2ccc3ncnc(Nc4ccc(OCc5cccc(F)c5)c(Cl)c4)c3c2)o1	KURAMOCHI	true

Does the compound `C[C@@H]1C=C2C(=O)O[C@@H]3CC[C@H](C1)[C@]23O` have recorded drug sensitivity score that is 2 DSS or more?
true

Does the compound `Nc1ccccc1NC(=O)c1ccc(CNC(=O)OCc2cccnc2)cc1` have recorded drug sensitivity score that is 2 DSS or more?
true

Does the compound `C[C@H]1Oc2cc(cnc2N)-c2c(nn(C)c2C#N)CN(C)C(=O)c2ccc(F)cc21` have recorded drug sensitivity score that is 2 DSS or more?
false

Does the compound CCCCNc1ncc(C(=O)NCc2ccc(-n3ccnc3)cc2)c(NC2CCC(O)CC2)n1 (stereo unspecified) have recorded drug sensitivity score that is 2 DSS or more?
true

Does the compound `CCOc1cc2ncc(C#N)c(Nc3ccc(OCc4ccccn4)c(Cl)c3)c2cc1NC(=O)/C=C/CN(C)C` have recorded drug sensitivity score that is 2 DSS or more?
true

Does the compound `CO[C@@H](C)Cn1c(=O)n(C)c2cnc3ccc(-c4cncc(C(C)(C)O)c4)cc3c21` have recorded drug sensitivity score that is 2 DSS or more?
true

Does the compound `CCCN(CCC)C(=O)C1=Cc2ccc(-c3ccc(C(=O)N4CCCC4)cc3)cc2N=C(N)C1` have recorded drug sensitivity score that is 2 DSS or more?
false

Does the compound `COc1cc(Nc2c(C#N)cnc3cc(OCCCN4CCN(C)CC4)c(OC)cc23)c(Cl)cc1Cl` have recorded drug sensitivity score that is 2 DSS or more?
true

====

This section presents molecules with their documented drug sensitivity score values.
- Test system: KURAMOCHI
- test-description: drug sensitivity score (DSS2) on cancer cell count; higher = more sensitive; extreme values may be limits of the assay
- recorded-conditions: co-cultured fibroblast: BJHTERT; 72 h
Answer in DSS, number only, no unit symbol.

Consider the reported drug sensitivity score for these molecules:
molecule	system	unit-symbol	drug sensitivity score
CC(=O)c1cnc2ccc(-c3cc(Cl)c(O)c(Cl)c3)nc2c1N[C@H]1CC[C@H](CN(C)C)CC1 [OTS167]	KURAMOCHI	DSS	14.9
O=C(Nc1cccc(NC(=O)c2cccc(O)c2O)c1)c1cccc(O)c1O [MST-312]	KURAMOCHI	DSS	12
COc1cc(NS(C)(=O)=O)ccc1Nc1c2ccccc2nc2ccccc12 [Amsacrine]	KURAMOCHI	DSS	14.4
O=C(O)C1(C(=O)O)CCC1.[NH2-].[NH2-].[Pt+2] [Carboplatin]	KURAMOCHI	DSS	13.3
CCc1c(C(=O)C(N)=O)c2c(OCC(=O)O)cccc2n1Cc1ccccc1 [Varespladib]	KURAMOCHI	DSS	0
CO[C@@H]1[C@H](N(C)C(=O)c2ccccc2)C[C@H]2O[C@]1(C)n1c3ccccc3c3c4c(c5c6ccccc6n2c5c31)C(=O)NC4 [Midostaurin]	KURAMOCHI	DSS	16.2
COc1cccc2c1C(=O)c1c(O)c3c(c(O)c1C2=O)C[C@@](O)(C(=O)CO)C[C@@H]3O[C@H]1C[C@H](N)[C@H](O)[C@H](C)O1 [Doxorubicin]	KURAMOCHI	DSS	10.7
CC(=O)[C@]1(O)Cc2c(O)c3c(c(O)c2[C@@H](O[C@H]2C[C@H](N)[C@H](O)[C@H](C)O2)C1)C(=O)c1ccccc1C3=O [Idarubicin]	KURAMOCHI	DSS	14.5

May I ask what drug sensitivity score has been recorded for CCN(c1cc(-c2ccc(CN3CCOCC3)cc2)cc(C(=O)NCc2c(C)cc(C)[nH]c2=O)c1C)C1CCOCC1 [Tazemetostat] ?
0

May I ask what drug sensitivity score has been recorded for CC(C)NC(=O)COc1cccc(-c2nc(Nc3ccc4[nH]ncc4c3)c3ccccc3n2)c1 [KD025] ?
1.2

May I ask what drug sensitivity score has been recorded for COc1cccc(OCCCN)c1-c1cc(Nc2cnc(C#N)cn2)n[nH]1 [Prexasertib] ?
25.7

May I ask what drug sensitivity score has been recorded for CC[C@H](NC(=O)[C@H](C)NC)C(=O)N1C[C@@H](O)C[C@H]1Cc1c(-c2[nH]c3cc(F)ccc3c2C[C@@H]2C[C@H](O)CN2C(=O)[C@H](CC)NC(=O)[C@H](C)NC)[nH]c2cc(F)ccc12 [Birinapant] ?
3.3

May I ask what drug sensitivity score has been recorded for CCn1c(=O)c(-c2ccc(Cl)cc2Cl)cc2cnc(Nc3ccc(N4CCNCC4)c(F)c3)nc21 [FRAX486] ?
9.7

May I ask what drug sensitivity score has been recorded for CO[C@H]1CC[C@H](N2C(=O)CNc3ncc(-c4ccc(C(C)(C)O)nc4)nc32)CC1 [CC-223] ?
6.8

May I ask what drug sensitivity score has been recorded for CCS(=O)(=O)c1cccc(-c2cc(C(=O)NC3CCN(C)CC3)c(C)c3[nH]c4ncc(C)cc4c23)c1 [TAK-901] ?
11.8
